System: HEK-293T
TEST NAME: Multiplex assay against HEK293T
Type: toxicity, cell-based
STUDY CONDITIONS: human, 24 h, 10 µM, compound concentration 10 uM, replicate 1
RECORDED ENDPOINT: Population Apoptotic (%)
Please give a number only; it is taken to be in %.

The cases that follow already have their Population Apoptotic (%) on record.
{"COMPOUND": "Cl.N#Cc1ccc2[nH]cc(CCCCN3CCN(c4ccc5oc(C(N)=O)cc5c4)CC3)c2c1 [VILAZODONE HYDROCHLORIDE]", "UNITS SYMBOL": "%", "MEASURED RESULT": 98}
{"COMPOUND": "Cn1cc(-c2[nH]c3cc(NC(=O)[C@H](N)C4CCCCC4)cc4c3c2C=NNC4=O)cn1", "UNITS SYMBOL": "%", "MEASURED RESULT": 74}
{"COMPOUND": "Cc1cc(C)cc(-c2cnc3cc(Cl)c(-c4cccc(O)c4)cc3c2OCCCN)c1", "UNITS SYMBOL": "%", "MEASURED RESULT": 77}
{"COMPOUND": "C[C@@H](NCCCc1cccc(C(F)(F)F)c1)c1cccc2ccccc12.Cl [CINACALCET HYDROCHLORIDE]", "UNITS SYMBOL": "%", "MEASURED RESULT": 87}
{"COMPOUND": "Cc1nc(-c2cn3c(n2)-c2ccc(-c4cnn(C(C)(C)C(N)=O)c4)cc2OCC3)n(C(C)C)n1", "UNITS SYMBOL": "%", "MEASURED RESULT": 27}

## Input Give a short answer stating reported Population Apoptotic (%) for "CN(C)C(=O)/C(C#N)=C/c1ccc(-c2nc3cnc4[nH]ccc4c3n2C2CCCCC2)o1" .
## Output 44

## Input Give a short answer stating reported Population Apoptotic (%) for "Cc1csc2c(N[C@@H](C)CN3CCN(S(=O)(=O)c4ccc(Cl)c(Cl)c4)CC3)ncnc12" .
## Output 85

## Input Give a short answer stating reported Population Apoptotic (%) for "CNc1nc(NCc2ccc(NS(C)(=O)=O)cc2Cl)cc(-c2ccccn2)n1" .
## Output 63

## Input Give a short answer stating reported Population Apoptotic (%) for "CN1CCN(CCOc2cc(OC3CCOCC3)c3c(Nc4c(Cl)ccc5c4OCO5)ncnc3c2)CC1" .
## Output 80

## Input Give a short answer stating reported Population Apoptotic (%) for "CN1CCN(c2ccc(OC(F)(F)F)c(Nc3ncc4c(n3)-c3c(c(C(N)=O)nn3CCO)CC4)c2)CC1" .
## Output 55

## Input Give a short answer stating reported Population Apoptotic (%) for "COc1cc(-n2cnc3cc(-c4ccc(Cl)cc4)sc3c2=O)ccc1OCCN1CCCC1" .
## Output 73

## Input Give a short answer stating reported Population Apoptotic (%) for "C=CC(=O)Nc1cccc(C(=O)Nc2ccc(Nc3cc(-c4[nH]c(SC)nc4C)ccn3)cc2)c1" .
## Output 48

## Input Give a short answer stating reported Population Apoptotic (%) for "c1cn2cc(-c3ccc4cn[nH]c4c3)nc(Nc3ccc(N4CCOCC4)cc3)c2n1" .
## Output 33

## Input Give a short answer stating reported Population Apoptotic (%) for "Cc1nc(-c2ccc(-c3ccc(C(=O)N4CCc5cc6c(cc54)C4(CCN(C)CC4)CO6)cc3)c(C)c2)no1" .
## Output 92

## Input Give a short answer stating reported Population Apoptotic (%) for "Cc1nc(Nc2n[nH]c3c2CN(C(=O)N[C@H](CN(C)C)c2ccccc2)C3(C)C)c2sccc2n1" .
## Output 27

## Input Give a short answer stating reported Population Apoptotic (%) for "CC(C)(O)CNc1ncc(-c2ccnc(Nc3ccnc(Cl)c3)n2)c(CC2CC2)n1" .
## Output 73
